biological target: T1, recombinant human RON SEMA and PSI domains (human, UniProt Q04912 25-571); experiment: SPR, purified Ab captured on anti-human IgG Fc, 25 C
T1 construct: domain: SEMA+PSI; Commercial protein (R&D Systems); also called rhRON SEMA+PSI; hRON SEMA+PSI
Value type: kon

[
  {
    "Binder": "Sh29B06-78 (antibody, human IgG1, kappa, V domains shown, Humanized, human IgG1/kappa: Hu29B06 Hv4-59 D27G T30S M48I I67V Y78F IgG1 + Sh29B06 Kv2-28 Kappa) VH: QVQLQESGPGLVKPSETLSLTCTVSGGSISSGYWNWIRKPPGKKLEYIGYISYSGKTYYNPSLKSRVTISRDTSKNQFSLKLSSVTAADTAVYYCARSKYDYAMDYWGQGTLVTVSS VL: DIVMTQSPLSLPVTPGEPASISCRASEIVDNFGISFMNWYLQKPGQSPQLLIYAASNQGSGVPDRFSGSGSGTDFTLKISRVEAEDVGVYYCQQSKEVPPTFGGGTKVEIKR",
    "Recorded value": "750000 M⁻¹ s⁻¹"
  }
]

This collection of values is drawn from patent US20120027773A1.
